Assignment: determine reported pIC50 for the given compounds.
# assayed-target: TEM-1 (Escherichia coli)
# Construct: made in house; host or cells: E. coli
# Sequence (P62593 24-286 limits assumed): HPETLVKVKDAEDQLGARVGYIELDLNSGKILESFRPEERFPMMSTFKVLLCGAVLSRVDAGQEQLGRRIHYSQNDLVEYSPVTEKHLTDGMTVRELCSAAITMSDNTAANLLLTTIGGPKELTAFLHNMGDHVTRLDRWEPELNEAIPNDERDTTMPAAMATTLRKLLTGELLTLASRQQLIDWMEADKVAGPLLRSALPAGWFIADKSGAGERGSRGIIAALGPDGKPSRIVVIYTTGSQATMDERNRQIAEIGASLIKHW
# assay-name: β-lactamase inhibitory activity, determination of IC50 (nitrocefin hydrolysis)
# Assay type: biochemical
Recall that pIC50 is obtained by taking minus log10 of the concentration measured in molar.

Q. Lab note: need pIC50 for Cn1nc(C2=CCN3CC2N(OS(=O)(=O)[O-])C3=O)ccc1=O.[Na+] (stereo not shown) [Example 17, sulfate] on TEM-1 (Escherichia coli), anyone have it?
A. 8.92

Q. Lab note: need pIC50 for Cn1cccc(C2=CCN3CC2N(OS(=O)(=O)[O-])C3=O)c1=O.[Na+] (stereo not shown) [Example 16, sulfate] on TEM-1 (Escherichia coli), anyone have it?
A. 7.25

Q. Lab note: need pIC50 for Cn1c(C2=CCN3CC2N(OS(=O)(=O)[O-])C3=O)cccc1=O.[Na+] (stereo not shown) [Example 18, sulfate] on TEM-1 (Escherichia coli), anyone have it?
A. 8.57

Q. Lab note: need pIC50 for O=C1N2CC(n3ccnc3)=CC(C2)N1OS(=O)(=O)[O-].[Na+] (stereo not shown) [Example 34] on TEM-1 (Escherichia coli), anyone have it?
A. 8.14

Q. Lab note: need pIC50 for Cn1ccc(C2=CCN3CC2N(OS(=O)(=O)[O-])C3=O)cc1=O.[Na+] (stereo not shown) [Example 13, sulfate] on TEM-1 (Escherichia coli), anyone have it?
A. 8.21

Q. Lab note: need pIC50 for O=C1N2CC=C(c3cccnc3)C(C2)N1OS(=O)(=O)[O-].[Na+] (stereo not shown) [Example 9] on TEM-1 (Escherichia coli), anyone have it?
A. 8.42

Q. Lab note: need pIC50 for O=C1N2CC=C(c3cncnc3)C(C2)N1OS(=O)(=O)[O-].[Na+] (stereo not shown) [Example 10, sulfate] on TEM-1 (Escherichia coli), anyone have it?
A. 8.11

Q. Lab note: need pIC50 for O=C1N2CC=C(c3ccccn3)C(C2)N1OS(=O)(=O)[O-].[Na+] (stereo not shown) [Example 11] on TEM-1 (Escherichia coli), anyone have it?
A. 7.57

Q. Lab note: need pIC50 for Cn1cc(C2=CCN3CC2N(OS(=O)(=O)[O-])C3=O)ccc1=O.[Na+] (stereo not shown) [Example 8, sulfate] on TEM-1 (Escherichia coli), anyone have it?
A. 8.09

Q. Lab note: need pIC50 for O=C1N2CC(c3ncon3)=CC(C2)N1OS(=O)(=O)[O-].[Na+] (stereo not shown) [Example 36, sulfate] on TEM-1 (Escherichia coli), anyone have it?
A. 8.64

Q. Lab note: need pIC50 for COc1ncc(C2=CC3CN(C2)C(=O)N3OS(=O)(=O)[O-])s1.[Na+] (stereo not shown) [Example 39, sulfate] on TEM-1 (Escherichia coli), anyone have it?
A. 8.85

Q. Lab note: need pIC50 for O=C1N2CC=C(c3cn[nH]c3)C(C2)N1OS(=O)(=O)[O-].[Na+] (stereo not shown) [Example 1, sulfate] on TEM-1 (Escherichia coli), anyone have it?
A. 7.89

Q. Lab note: need pIC50 for Cn1cc(C2=CCN3CC2N(OS(=O)(=O)[O-])C3=O)cnc1=O.[Na+] (stereo not shown) [Example 15, sulfate] on TEM-1 (Escherichia coli), anyone have it?
A. 8.00

Q. Lab note: need pIC50 for O=C1N2CC=C(c3cnoc3)C(C2)N1OC(F)(F)C(=O)[O-].[Li+] (stereo not shown) [Example 6] on TEM-1 (Escherichia coli), anyone have it?
A. 8.14

Q. Lab note: need pIC50 for Cn1nccc1C1=CCN2CC1N(OS(=O)(=O)[O-])C2=O.[Na+] (stereo not shown) [Example 2, sulfate] on TEM-1 (Escherichia coli), anyone have it?
A. 8.57

Q. Lab note: need pIC50 for O=C1N2CC=C(c3cnsc3)C(C2)N1OS(=O)(=O)[O-].[Na+] (stereo not shown) [Example 29, sulfate] on TEM-1 (Escherichia coli), anyone have it?
A. 7.96

Q. Lab note: need pIC50 for O=C1N2CC(c3cn[nH]c3)=CC(C2)N1OS(=O)(=O)[O-].[Na+] (stereo not shown) [Example 43, sulfate] on TEM-1 (Escherichia coli), anyone have it?
A. 9.11

Q. Lab note: need pIC50 for COc1ncc(C2=CCN3CC2N(OS(=O)(=O)[O-])C3=O)cn1.[Na+] (stereo not shown) [Example 24, sulfate] on TEM-1 (Escherichia coli), anyone have it?
A. 7.92

Q. Lab note: need pIC50 for O=C1N2CC(c3ncco3)=CC(C2)N1OS(=O)(=O)[O-].[Na+] (stereo not shown) [Example 25] on TEM-1 (Escherichia coli), anyone have it?
A. 8.42

Q. Lab note: need pIC50 for O=C1N2CC=C(c3cnco3)C(C2)N1OS(=O)(=O)[O-].[Na+] (stereo not shown) [Example 3] on TEM-1 (Escherichia coli), anyone have it?
A. 8.47

Q. Lab note: need pIC50 for Cn1cc(C2=CC3CN(C2)C(=O)N3OS(=O)(=O)[O-])ccc1=O.[Na+] (stereo not shown) [Example 28, sulfate] on TEM-1 (Escherichia coli), anyone have it?
A. 8.80

Q. Lab note: need pIC50 for O=C1N2CC(c3ccncc3)=CC(C2)N1OS(=O)(=O)[O-].[Na+] (stereo not shown) [Example 33] on TEM-1 (Escherichia coli), anyone have it?
A. 9.00

---

# assayed-target: CTX-M-15 (Escherichia coli)
# Construct: made in house; host or cells: E. coli
# Sequence (Q9EXV5 entry or part of it): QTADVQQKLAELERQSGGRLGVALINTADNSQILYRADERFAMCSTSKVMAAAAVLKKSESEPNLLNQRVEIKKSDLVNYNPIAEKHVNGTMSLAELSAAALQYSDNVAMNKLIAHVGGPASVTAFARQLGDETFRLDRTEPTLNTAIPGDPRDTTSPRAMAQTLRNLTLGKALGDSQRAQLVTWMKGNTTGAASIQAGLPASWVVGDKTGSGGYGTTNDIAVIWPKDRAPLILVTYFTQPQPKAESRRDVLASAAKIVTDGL
# assay-name: β-lactamase inhibitory activity, determination of IC50 (nitrocefin hydrolysis)
# Assay type: biochemical
# condition-set: class (A); nitrocefin 200 μM, 30 min pre-incubation; read-out: IC50 β-lactamase CTX-M-15
property-measured: pIC50
Recall that pIC50 is obtained by taking minus log10 of the concentration measured in molar.

Q. I'd like to know its pIC50. The compound in question is O=C1N2CC(n3ccnc3)=CC(C2)N1OS(=O)(=O)[O-].[Na+] (centres unmarked) [Example 34]
A. 8.57

Q. I'd like to know its pIC50. The compound in question is Cn1cc(C2=CCN3CC2N(OS(=O)(=O)[O-])C3=O)cnc1=O.[Na+] (centres unmarked) [Example 15, sulfate]
A. 8.20

Q. I'd like to know its pIC50. The compound in question is O=C1N2CC=C(c3cscn3)C(C2)N1OS(=O)(=O)[O-].[Na+] (centres unmarked) [Example 31, sulfate]
A. 8.26

Q. I'd like to know its pIC50. The compound in question is Cn1cnc(C2=CCN3CC2N(OS(=O)(=O)[O-])C3=O)cc1=O.[Na+] (centres unmarked) [Example 20, sulfate]
A. 8.46

Q. I'd like to know its pIC50. The compound in question is Cn1cc(C2=CCN3CC2N(OS(=O)(=O)[O-])C3=O)ncc1=O.[Na+] (centres unmarked) [Example 14, sulfate]
A. 8.57

Q. I'd like to know its pIC50. The compound in question is O=C1N2CC(c3cn[nH]c3)=CC(C2)N1OS(=O)(=O)[O-].[Na+] (centres unmarked) [Example 43, sulfate]
A. 8.54

Q. I'd like to know its pIC50. The compound in question is O=C1N2CC=C(c3ncco3)C(C2)N1OS(=O)(=O)[O-].[Na+] (centres unmarked) [Example 4]
A. 8.12

Q. I'd like to know its pIC50. The compound in question is Cn1cc(C2=CC3CN(C2)C(=O)N3OS(=O)(=O)[O-])ccc1=O.[Na+] (centres unmarked) [Example 28, sulfate]
A. 8.36

---

# assayed-target: OXA-11 (Pseudomonas aeruginosa)
# Construct: made in house; host or cells: E. coli
# Sequence (Q06778 21-266): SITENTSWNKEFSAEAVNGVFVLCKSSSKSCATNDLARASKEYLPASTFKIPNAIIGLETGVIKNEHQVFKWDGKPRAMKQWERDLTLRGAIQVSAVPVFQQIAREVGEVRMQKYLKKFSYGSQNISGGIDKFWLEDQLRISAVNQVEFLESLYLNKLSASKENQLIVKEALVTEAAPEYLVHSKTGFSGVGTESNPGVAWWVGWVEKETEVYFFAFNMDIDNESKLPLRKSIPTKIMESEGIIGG
# assay-name: β-lactamase inhibitory activity, determination of IC50 (nitrocefin hydrolysis)
# Format: biochemical
property-measured: IC50 (nM)
Quick note: give the figure in nM, leave out the unit.

Q. I'd like to know its IC50. The compound in question is O=C1N2CC=C(c3ccccn3)C(C2)N1OS(=O)(=O)[O-].[Na+] (stereo not shown)
A. 6400

Q. I'd like to know its IC50. The compound in question is O=C1N2CC(c3cn[nH]c3)=CC(C2)N1OS(=O)(=O)[O-].[Na+] (stereo not shown) [Example 43, sulfate]
A. 370

Q. I'd like to know its IC50. The compound in question is O=C1N2CC=C(c3cn[nH]c3)C(C2)N1OS(=O)(=O)[O-].[Na+] (stereo not shown) [Example 1, sulfate]
A. 2900

Q. I'd like to know its IC50. The compound in question is O=C1N2CC=C(c3ccns3)C(C2)N1OS(=O)(=O)[O-].[Na+] (stereo not shown) [Example 30, sulfate]
A. 720

---

Assignment: determine reported IC50 for the given compounds.
# assayed-target: OXA-15 (Pseudomonas aeruginosa)
# Construct: made in house; host or cells: E. coli
# Sequence (Q51574 22-275): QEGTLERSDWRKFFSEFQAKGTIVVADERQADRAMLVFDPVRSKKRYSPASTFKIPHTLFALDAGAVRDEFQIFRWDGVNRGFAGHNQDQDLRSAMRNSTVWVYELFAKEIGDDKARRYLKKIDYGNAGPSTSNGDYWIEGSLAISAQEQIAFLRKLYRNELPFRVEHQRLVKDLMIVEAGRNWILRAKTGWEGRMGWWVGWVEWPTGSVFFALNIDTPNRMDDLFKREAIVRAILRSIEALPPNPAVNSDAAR
# assay-name: biochemical
Quick note: give the figure in nM, leave out the unit.

Q. I'd like to know its IC50. The compound in question is Cn1ncc(C2=CCN3CC2N(OS(=O)(=O)[O-])C3=O)cc1=O.[Na+] (centres unmarked) [Example 19, sulfate]
A. 75

Q. I'd like to know its IC50. The compound in question is O=C1N2CC=C(c3cnccn3)C(C2)N1OS(=O)(=O)[O-].[Na+] (centres unmarked) [Example 12]
A. 66

Q. I'd like to know its IC50. The compound in question is O=C1N2CC(c3cn[nH]c3)=CC(C2)N1OS(=O)(=O)[O-].[Na+] (centres unmarked) [Example 43, sulfate]
A. 540

Q. I'd like to know its IC50. The compound in question is O=C1N2CC(n3ccnc3)=CC(C2)N1OS(=O)(=O)[O-].[Na+] (centres unmarked) [Example 34]
A. 220

Q. I'd like to know its IC50. The compound in question is NCc1ncc(C2=CCN3CC2N(OS(=O)(=O)O)C3=O)s1 (centres unmarked) [Example 32]
A. 170

Q. I'd like to know its IC50. The compound in question is O=C1N2CC=C(c3ccncc3)C(C2)N1OS(=O)(=O)[O-].[Na+] (centres unmarked) [Example 7]
A. 95

Q. I'd like to know its IC50. The compound in question is O=C1N2CC(c3cccnc3)=CC(C2)N1OS(=O)(=O)[O-].[Na+] (centres unmarked) [Example 41]
A. 150

Q. I'd like to know its IC50. The compound in question is Cn1nc(C2=CCN3CC2N(OS(=O)(=O)[O-])C3=O)ccc1=O.[Na+] (centres unmarked) [Example 17, sulfate]
A. 57
